- Tested on: Sporothrix schenkii
- Procedure Summary: Antifungal activity in vitro, resazurin growth inhibition: Sporothrix schenkii (B62482)
- Type: cell-based
- Experimental: The standard susceptibility screen is performed in 96-well plates (U-bottom, Greiner Bio-One). Serial dilutions (2-fold or 4-fold) of 20 mM compound stock solutions are made in 100% DMSO, followed by an intermediate dilution step in water. These serial dilutions (10 μl) are then spotted onto test-plates that can be stored in the dark at 4° C. for a maximum period of 2 weeks. An adequate broad dose-range is included with 64 μM as the highest in-test concentration. […]
Parameter: Inf. A: Sporothrix schenkii B62482, pIC50

{"Molecule": "CCc1ccc(C2=NCc3c(ccc(Cl)c3Cl)-n3cccc32)cn1", "Target Desc": "Sporothrix schenkii", "Result Value": "<4.19"}
{"Molecule": "Cn1ccc2cc(C3=NCc4c(Cl)cccc4-n4cccc43)ccc21", "Target Desc": "Sporothrix schenkii", "Result Value": 4.90}
{"Molecule": "c1ccc2c(c1)CN=C(c1cc3ccccc3o1)c1cccn1-2", "Target Desc": "Sporothrix schenkii", "Result Value": 5.70}
{"Molecule": "FC(F)(F)c1cc(C2=NCc3ccc(Cl)cc3-n3cccc32)ccn1", "Target Desc": "Sporothrix schenkii", "Result Value": 4.49}
{"Molecule": "Cc1ccc(Cl)c2c1-n1cccc1C(c1cc3ccccc3s1)=NC2", "Target Desc": "Sporothrix schenkii", "Result Value": "<4.19"}
{"Molecule": "Clc1ccc2c(c1)-n1cccc1C(c1ccncc1)=NC2", "Target Desc": "Sporothrix schenkii", "Result Value": "<4"}
{"Molecule": "Cc1ccc(Cl)c2c1-n1cccc1C(c1cc3ccccc3s1)NC2.Cl (racemic)", "Target Desc": "Sporothrix schenkii", "Result Value": "<4.19"}
{"Molecule": "Clc1ccc(Cl)c2c1CN=C(c1ccc3ccoc3c1)c1cccn1-2", "Target Desc": "Sporothrix schenkii", "Result Value": "<4.19"}
{"Molecule": "Fc1cccc2cc(C3=NCc4c(Cl)cccc4-n4cccc43)oc12", "Target Desc": "Sporothrix schenkii", "Result Value": "<4.19"}
